# test-description: Photostability of the compound assessed as parent compound remaining under sunlight exposed for 6 days in EtOH solution measured in presence of UV-B filter octinoxate by TLC method
# Assay type: physicochemical
# run-conditions: read-out: Stability
recorded-endpoint: remaining at 144 h

Field remaining at 144 h (entry CC(C)=CCC/C(C)=C/CC/C(C)=C/COc1ccc2ccc(=O)oc2c1 [UMBELLIPRENIN] ) reads 13%

* * *

# test-description: Photochemical stability of the compound assessed as compound degradation under sunlight in EtOH solution measured after 24 hrs by HPLC analysis
# Assay type: physicochemical
# run-conditions: read-out: Drug degradation
recorded-endpoint: degraded at 24 h (%)
Field format: number, assumed %, no unit text.

Documented degraded at 24 h of CC(C)=CCC/C(C)=C/CC/C(C)=C/COc1ccc2ccc(=O)oc2c1 [UMBELLIPRENIN] : 70.4
